ASSAY_TARGET: Receptor-type tyrosine-protein kinase FLT3 (Homo sapiens, UniProt P36888)
Sequence (P36888 whole entry): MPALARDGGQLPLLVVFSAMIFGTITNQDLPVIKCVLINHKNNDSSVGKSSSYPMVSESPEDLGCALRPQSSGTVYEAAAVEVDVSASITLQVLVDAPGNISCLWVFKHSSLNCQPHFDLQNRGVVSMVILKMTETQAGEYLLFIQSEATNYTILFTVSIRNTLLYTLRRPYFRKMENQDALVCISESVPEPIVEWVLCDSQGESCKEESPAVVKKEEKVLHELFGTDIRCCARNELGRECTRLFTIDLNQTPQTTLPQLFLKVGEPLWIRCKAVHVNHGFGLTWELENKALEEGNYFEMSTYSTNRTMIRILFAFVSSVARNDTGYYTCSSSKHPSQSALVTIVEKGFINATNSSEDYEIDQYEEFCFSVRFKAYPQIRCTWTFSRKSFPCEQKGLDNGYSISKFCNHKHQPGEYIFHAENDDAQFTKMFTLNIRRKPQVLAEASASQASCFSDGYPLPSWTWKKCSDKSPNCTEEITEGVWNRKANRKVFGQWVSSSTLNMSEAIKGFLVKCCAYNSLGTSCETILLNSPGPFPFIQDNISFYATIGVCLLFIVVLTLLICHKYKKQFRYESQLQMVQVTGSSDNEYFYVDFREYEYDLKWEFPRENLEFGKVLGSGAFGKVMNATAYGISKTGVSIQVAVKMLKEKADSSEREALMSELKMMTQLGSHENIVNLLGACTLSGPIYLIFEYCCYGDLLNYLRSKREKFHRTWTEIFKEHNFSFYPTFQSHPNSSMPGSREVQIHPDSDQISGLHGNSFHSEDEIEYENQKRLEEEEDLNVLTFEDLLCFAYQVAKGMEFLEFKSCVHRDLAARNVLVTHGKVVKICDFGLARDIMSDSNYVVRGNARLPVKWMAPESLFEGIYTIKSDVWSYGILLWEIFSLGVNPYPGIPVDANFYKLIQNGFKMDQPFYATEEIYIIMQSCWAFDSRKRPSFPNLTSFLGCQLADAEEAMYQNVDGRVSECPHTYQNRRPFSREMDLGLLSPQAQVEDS
VALUE_KIND: IC50 (nM)
Reply with just the number (in nM).

Form field: reported IC50 of "Oc1ccc(-c2ccc3c(-c4ccc(N5CCNCC5)cc4)n[nH]c3n2)cc1" 4

* * *

These compounds were tested on Serine/threonine-protein kinase pim-3 (Homo sapiens, UniProt Q86V86); pIC50 is the recorded read-out.
Here pIC50 is given on a logarithmic scale as minus log10 of the concentration in mol/L.

The examples below pair each entry with its known result.
{"COMPOUND": "c1cc(-c2ccc3[nH]cc(-c4ccc(N5CCNCC5)cc4)c3c2)ccn1", "VALUE_KIND": "pIC50", "VALUE_REPORTED": 5.24}
{"COMPOUND": "c1cncc(-c2ccc3[nH]cc(-c4ccc(N5CCNCC5)cc4)c3c2)c1", "VALUE_KIND": "pIC50", "VALUE_REPORTED": 6.31}
{"COMPOUND": "Nc1ccc(-c2c[nH]c3ccc(-c4cncc(N5CCCC(N)C5)n4)cc23)c(F)n1 (stereo unspecified)", "VALUE_KIND": "pIC50", "VALUE_REPORTED": 8.52}
{"COMPOUND": "c1ccc(-c2ccc3[nH]cc(-c4ccc(N5CCNCC5)cc4)c3c2)nc1", "VALUE_KIND": "pIC50", "VALUE_REPORTED": 4.85}

Lab note: next compound to report on.
Tell me reported pIC50 for "c1cc(-c2ccc3c(-c4ccc(N5CCNCC5)cc4)n[nH]c3n2)ccn1" , tested with Serine/threonine-protein kinase pim-3 (Homo sapiens, UniProt Q86V86). 5.24

* * *

IC50 values, listed per item
ASSAY_TARGET: Serine/threonine-protein kinase pim-1 (Homo sapiens, UniProt P11309)
Sequence (P11309 whole entry): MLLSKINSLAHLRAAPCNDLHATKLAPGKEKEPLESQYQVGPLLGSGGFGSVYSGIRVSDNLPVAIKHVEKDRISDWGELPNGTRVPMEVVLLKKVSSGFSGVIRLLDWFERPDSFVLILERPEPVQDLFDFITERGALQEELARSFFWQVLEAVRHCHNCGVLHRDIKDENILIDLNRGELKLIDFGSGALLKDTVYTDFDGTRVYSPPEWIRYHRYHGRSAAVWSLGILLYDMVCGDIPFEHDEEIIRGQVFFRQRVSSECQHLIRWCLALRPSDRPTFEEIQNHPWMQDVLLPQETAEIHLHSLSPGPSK

The examples below pair each entry with its known result.
{"SUBSTANCE_SMILES": "Oc1ccc(-c2ccc3c(-c4ccc(N5CCNCC5)cc4)c[nH]c3c2)cc1", "IC50": "4 nM"}
{"SUBSTANCE_SMILES": "Nc1ccc(-c2c[nH]c3ccc(-c4cncc(O[C@H]5CC[C@H](N)CC5)n4)cc23)c(F)n1", "IC50": "< 2 nM"}

Lab note: next compound to report on.
Tell me reported IC50 for "Nc1ccc(-c2c[nH]c3ccc(-c4cncc(OC[C@@H](N)c5ccccc5)n4)cc23)c(F)n1" , tested with Serine/threonine-protein kinase pim-1 (Homo sapiens, UniProt P11309). < 2 nM

* * *

ASSAY_TARGET: Mast/stem cell growth factor receptor Kit (Homo sapiens, UniProt P10721)
Sequence (P10721 whole entry): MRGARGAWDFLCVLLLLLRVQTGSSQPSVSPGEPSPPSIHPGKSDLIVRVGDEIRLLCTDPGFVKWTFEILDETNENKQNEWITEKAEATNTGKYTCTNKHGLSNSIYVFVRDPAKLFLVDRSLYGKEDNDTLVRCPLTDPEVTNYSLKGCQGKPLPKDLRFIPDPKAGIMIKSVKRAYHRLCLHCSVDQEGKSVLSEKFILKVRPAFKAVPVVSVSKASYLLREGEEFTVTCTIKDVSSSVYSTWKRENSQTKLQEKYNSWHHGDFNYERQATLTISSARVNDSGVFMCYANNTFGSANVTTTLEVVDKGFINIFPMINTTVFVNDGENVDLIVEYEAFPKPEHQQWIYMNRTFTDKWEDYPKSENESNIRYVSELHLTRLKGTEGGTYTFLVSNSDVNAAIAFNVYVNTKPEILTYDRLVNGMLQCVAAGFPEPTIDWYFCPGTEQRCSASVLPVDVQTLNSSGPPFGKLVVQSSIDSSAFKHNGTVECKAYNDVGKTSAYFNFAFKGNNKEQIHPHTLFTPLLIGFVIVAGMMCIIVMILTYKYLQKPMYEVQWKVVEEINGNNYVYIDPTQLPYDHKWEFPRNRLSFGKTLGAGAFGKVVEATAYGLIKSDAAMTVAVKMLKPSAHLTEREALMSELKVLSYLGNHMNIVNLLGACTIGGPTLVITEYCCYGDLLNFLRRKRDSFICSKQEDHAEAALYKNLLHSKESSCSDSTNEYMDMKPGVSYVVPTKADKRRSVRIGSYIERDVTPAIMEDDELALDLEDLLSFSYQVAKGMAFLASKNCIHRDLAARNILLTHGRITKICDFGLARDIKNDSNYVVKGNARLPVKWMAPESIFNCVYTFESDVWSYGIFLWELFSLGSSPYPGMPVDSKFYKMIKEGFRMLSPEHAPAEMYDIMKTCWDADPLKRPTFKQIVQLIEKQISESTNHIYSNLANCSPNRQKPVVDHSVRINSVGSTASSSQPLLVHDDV
VALUE_KIND: pIC50
Here pIC50 is given on a logarithmic scale as minus log10 of the concentration in mol/L.

Form field: reported pIC50 of "Oc1ccc(-c2ccc3c(-c4ccc(N5CCNCC5)cc4)n[nH]c3n2)cc1" 8.15

* * *

ASSAY_TARGET: Serine/threonine-protein kinase pim-2 (Homo sapiens)
Sequence (Q9P1W9 whole entry): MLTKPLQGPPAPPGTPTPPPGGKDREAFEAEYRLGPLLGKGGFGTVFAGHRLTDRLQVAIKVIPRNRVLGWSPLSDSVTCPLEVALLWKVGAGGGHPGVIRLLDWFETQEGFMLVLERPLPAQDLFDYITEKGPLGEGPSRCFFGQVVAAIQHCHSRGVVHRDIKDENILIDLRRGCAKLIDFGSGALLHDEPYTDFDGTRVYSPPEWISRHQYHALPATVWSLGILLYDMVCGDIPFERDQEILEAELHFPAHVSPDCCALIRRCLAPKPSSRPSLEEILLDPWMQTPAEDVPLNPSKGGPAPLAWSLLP
RUN_DESCRIPTION: Inhibition of PIM2 using BAD peptide as substrate preincubated for 15 mins measured after 60 to 100 mins by luminescence assay
VALUE_KIND: pIC50
Here pIC50 is given on a logarithmic scale as minus log10 of the concentration in mol/L.

{"SUBSTANCE_SMILES": "c1cc(-c2ccc3c(-c4ccc(N5CCNCC5)cc4)n[nH]c3n2)c2cc[nH]c2c1", "ASSAY_TARGET": "Serine/threonine-protein kinase pim-2 (Homo sapiens)", "VALUE_REPORTED": 6.19}

Form field: reported pIC50 of "Nc1ccc(-c2c[nH]c3ccc(-c4cncc(O[C@H]5CC[C@H](N)CC5)n4)cc23)c(F)n1" 7.08

Form field: reported pIC50 of "CC(C)[C@H](N)COc1cncc(-c2ccc3[nH]cc(-c4ccc(N)nc4F)c3c2)n1" 7.14

Form field: reported pIC50 of "c1cnc(-c2ccc3[nH]cc(-c4ccc(N5CCNCC5)cc4)c3c2)cn1" 4.87
